I'd be grateful if you could share measured growth for these entries.
System: BT-549 breast
Test: NCI-60 one-dose screen, 48 h (100 = growth as untreated, 0 = no growth, -100 = all killed)
Conditions: 10 µM unless noted
Procedure: Growth inhibition of the BT-549 human tumor cell line is measured as a screen for anti-cancer activity. Cells are grown in 96 well plates and exposed to the test compound for 48 hours. Compounds are tested at a single concentration, which is 10^-5 M for most compounds. The reported endpoint is percent growth (GI% or GIPRCNT), where numbers from 0 - 100% represent growth inhibition, and numbers from -100% - 0 represent cell death. For example, a value of 40 represents 60% growth inhibition. […]
This is part of a sample that, as a whole, favours compounds with a hit. Of some 83,000 tested, about 20% had one in any assay. Active and inactive are the calls of the source. Rule for the calls: active = growth percent below 10; inactive = the rest.

Prompt: Quick check: growth of CC1(c2ccc3ccccc3c2)CCC(=O)O1 (stereo not given) ?
Response: 104% (inactive)

Prompt: Same for NC(=O)c1ccccc1OCC(O)CO (stereo not given)
Response: 109% (inactive)

Prompt: Same for "COc1cc(C(=O)N/N=C/c2ccc(N(C)C)cc2)cc(OC)c1OC"
Response: -2.93% (active)

Prompt: Same for "NC(=S)NS(=O)(=O)c1ccc(N)cc1"
Response: 128% (inactive)

Prompt: Same for "CC1=C(/C=C/C(C)=C/C=C/C(C)=C/C(=O)Nc2ccc(O)cc2)C(C)(C)CCC1"
Response: 21.9% (inactive)

Prompt: Same for "Cc1cc(-c2ccc(NS(=O)(=O)c3ccccc3)c(C)c2)ccc1NS(=O)(=O)c1ccccc1"
Response: 79.7% (inactive)

Prompt: Same for "CCCCCCCCCCCCCCCCOc1ccc(C)cc1"
Response: 112% (inactive)

Prompt: Same for "Nc1ccc2[nH]c(-c3ccccc3)cc(=O)c2c1"
Response: 81.2% (inactive)

Prompt: Same for "c1ccc(N(c2ccccc2)c2ccccc2)cc1"
Response: 106% (inactive)

Prompt: Same for "Cn1cnc([N+](=O)[O-])c1Sc1ncnc2nc[nH]c12"
Response: 70.7% (inactive)

Prompt: Same for "Cc1cccc(/C=C\C(=O)c2ccccc2)c1"
Response: 90.5% (inactive)

Prompt: Same for "C[N+](C)(C)CN1C(=O)c2ccccc2C1=O"
Response: 98.6% (inactive)

Prompt: Same for "COc1ccc(NC(=S)Nc2ccccn2)cc1"
Response: 105% (inactive)

Prompt: Same for CCC(=O)C(CC)c1cccc(OC)c1 (stereo not given)
Response: 105% (inactive)

Prompt: Same for "O=C(N/N=C/c1cccc2ccccc12)C1CC1"
Response: 101% (inactive)

----------
test system: UO-31 renal; assay: NCI-60 one-dose screen, 48 h (100 = growth as untreated, 0 = no growth, -100 = all killed); details: 10 µM unless noted
This is part of a sample that, as a whole, favours compounds with a hit. Of some 83,000 tested, about 20% had one in any assay.
Measured attribute: growth (%)
Give the number; % is assumed, so skip it.

Prompt: Given the entry "Nc1n[nH]c(=S)n1-c1ccc(Cl)cc1" , what growth was observed with UO-31 renal?
Response: 89

Prompt: Same for "CN(Cc1ccccc1)Cc1ccccc1"
Response: 93

Prompt: Same for CC(/C=N/N1C(=O)c2ccccc2C1=O)c1ccccc1 (stereo unspecified)
Response: 88.1

Prompt: Same for "O=C(O)CSCc1nc2ccccc2[nH]1"
Response: 93.3

Prompt: Same for "O=C(O)c1cc(C(=O)O)cc([N+](=O)[O-])c1"
Response: 91.3

Prompt: Same for "CCOC(=O)c1sc(N)nc1-c1ccccc1"
Response: 85.4

Prompt: Same for "OCc1ccccn1"
Response: 97.9

Prompt: Same for "N#C/C(=C/c1c(O)ccc2ccccc12)C(N)=O"
Response: 54

Prompt: Same for CC1(c2ccc3ccccc3c2)CCC(=O)O1 (stereo unspecified)
Response: 81.1

Prompt: Same for "Cc1ccc(-c2noc(C)n2)cc1"
Response: 84

Prompt: Same for "O=[N+]([O-])c1ccc2nc3c4ccccc4c4ccccc4c3nc2c1"
Response: 75.3
